The measurements presented in this section are drawn from ChEMBL document CHEMBL1145301.

# experiment_summary: Antiinflammatory activity assessed as prevention of hypotonicity-induced lysis of human RBC at 100 ug/ml
# Assay type: functional, Erythrocyte
readout_name: Activity (%)
All answers are understood in %, so give the number only.

Some solved cases for reference:
[
  {
    "smiles_representation": "Cc1cc2c(cc1C)COc1ccccc1C(=O)Nc1ccccc1SCc1ccc(cc1)-c1cccc(c1)-c1ccc(cc1)CSc1ccccc1NC(=O)c1ccccc1OC2",
    "Activity / %": 51.42
  },
  {
    "smiles_representation": "Cc1cc2c(cc1C)COc1ccccc1C(=O)Nc1ccccc1SCc1ccc(cc1)-c1ccc(cc1)CSc1ccccc1NC(=O)c1ccccc1OC2",
    "Activity / %": 89.67
  }
]

Alright, here's another compound for you.
Recall and state the measured Activity for O=C1CSc2ccccc2NC(=O)c2ccccc2OCc2ccccc2COc2ccccc2C(=O)Nc2ccccc2SCC(=O)Nc2ccccc2N1 .
48.72

---

# experiment_summary: Antiinflammatory activity assessed as prevention of hypotonicity-induced lysis of human RBC at 100 ug/ml
# Format: functional, Erythrocyte
Here the recorded Activity is given for each entry.
Give the value in % but do not write % after it.

[
  {
    "compound": "C[C@]12C=CC(=O)C=C1CC[C@@H]1[C@@H]2[C@@H](O)C[C@@]2(C)[C@H]1CC[C@]2(O)C(=O)CO [PREDNISOLONE]",
    "Activity (%)": 86.37
  },
  {
    "compound": "Cc1cc2c(cc1C)COc1ccccc1C(=O)Nc1ccccc1SCCOc1ccc(cc1)NC(=O)c1ccccc1OC2",
    "Activity (%)": 50.25
  },
  {
    "compound": "Cc1cc2c(cc1C)COc1ccccc1C(=O)Nc1ccccc1SCc1ccc(cc1)NC(=O)c1ccccc1OC2",
    "Activity (%)": 56.04
  }
]

Turning now to a further compound:
Give reported Activity value for Cc1cc2c(cc1C)COc1ccccc1C(=O)N(c1ccccc1)CCNC(=O)COc1ccccc1OCC(=O)NCCN(c1ccccc1)C(=O)c1ccccc1OC2
45.25
